Target: HDAC6 (Homo sapiens, UniProt Q9UBN7)
Construct: purchased Reaction Biology Corporation (assay run by the CRO)
Sequence (Q9UBN7 1-1215): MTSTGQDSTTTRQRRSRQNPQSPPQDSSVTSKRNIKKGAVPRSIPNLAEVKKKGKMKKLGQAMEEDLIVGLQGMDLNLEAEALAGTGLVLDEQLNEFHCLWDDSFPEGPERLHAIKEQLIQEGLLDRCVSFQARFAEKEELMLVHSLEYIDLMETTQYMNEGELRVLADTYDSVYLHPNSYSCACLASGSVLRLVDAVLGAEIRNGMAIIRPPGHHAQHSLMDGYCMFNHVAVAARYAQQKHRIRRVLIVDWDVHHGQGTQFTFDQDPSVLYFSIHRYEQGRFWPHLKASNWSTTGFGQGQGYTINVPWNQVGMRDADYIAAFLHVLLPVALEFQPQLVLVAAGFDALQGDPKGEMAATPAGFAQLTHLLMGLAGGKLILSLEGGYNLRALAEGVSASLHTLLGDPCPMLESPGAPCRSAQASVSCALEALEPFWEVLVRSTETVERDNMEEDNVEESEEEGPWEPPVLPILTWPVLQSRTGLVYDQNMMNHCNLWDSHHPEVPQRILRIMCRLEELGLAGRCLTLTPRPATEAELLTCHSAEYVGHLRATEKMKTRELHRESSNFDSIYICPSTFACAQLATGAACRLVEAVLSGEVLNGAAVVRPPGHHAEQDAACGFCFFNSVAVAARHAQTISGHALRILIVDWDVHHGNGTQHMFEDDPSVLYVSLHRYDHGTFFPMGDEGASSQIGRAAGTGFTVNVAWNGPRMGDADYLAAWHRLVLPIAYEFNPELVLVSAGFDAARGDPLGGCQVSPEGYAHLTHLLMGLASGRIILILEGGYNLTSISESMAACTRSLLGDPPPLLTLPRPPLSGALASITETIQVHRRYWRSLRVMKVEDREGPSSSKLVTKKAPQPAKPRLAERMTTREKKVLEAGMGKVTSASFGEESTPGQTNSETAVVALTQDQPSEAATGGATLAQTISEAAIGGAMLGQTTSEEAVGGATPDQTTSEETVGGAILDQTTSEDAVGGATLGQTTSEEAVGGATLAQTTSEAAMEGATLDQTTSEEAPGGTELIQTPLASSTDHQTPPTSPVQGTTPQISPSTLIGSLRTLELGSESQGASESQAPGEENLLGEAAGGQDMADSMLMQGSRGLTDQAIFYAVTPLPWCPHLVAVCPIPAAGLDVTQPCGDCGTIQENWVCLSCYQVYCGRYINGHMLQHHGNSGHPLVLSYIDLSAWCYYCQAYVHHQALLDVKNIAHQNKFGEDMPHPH
Experiment: HDAC6 inhibition, full IC50 measurement (Reaction Biology; fluorogenic p53 peptide RHKK(Ac)AMC)
Format: biochemical
Settings: Conc. 4.12E-08 M, t2
Protocol: The assay was performed using 50 μM fluorogenic peptide from p53 residues 379-382 [RHKK(Ac)AMC] in a base reaction buffer of 50 mM Tris-HCl at pH 8.0, 137 mM NaCl, 2.7 mM KCl, 1 mM MgCl2, and freshly added 1 mg/ml BSA and 1% DMSO. […] Peptide concentrations were calculated based on mass of lyophilized peptide and its molecular weight. […]
Peptide text beside a SMILES is read from it.
Provide the reported HDAC6 activity raw data (signal) of each item.
Answers are plain numbers.

Recorded results for 3 compounds are shown here.
CSCC[C@H]1NC(=O)[C@@H](CO)NC(=O)[C@H](CC(N)=O)NC(=O)[C@H](CC(=O)O)NC(=O)[C@@H]([C@H](C)O)NC(=O)[C@H](Cc2c[nH]c3ccccc23)NC(=O)[C@H](CCCCCS)NC(=O)[C@H](CCCCN)NC(=O)[C@@H](CC(=O)O)NC1=O [des2.1.1, SHA-Trp-dThr-Asp-Asn-dSer-dMet-dAsp-Lys] (HELM PEPTIDE1{D.N.[dS].[dM].[dD].K.[O=C([C@H](CCCCCS)N[*:1])[*:2]].W.[dT]}$PEPTIDE1,PEPTIDE1,1:R1-9:R2$$$V2.0) ... 101798
CCCC[C@H]1NC(=O)[C@H](Cc2ccccc2)NC(=O)[C@H](CCCCCS)NC(=O)[C@@H](CCCNC(=N)N)NC(=O)[C@H](CC(=O)O)NC(=O)[C@@H](CO)NC(=O)[C@@H](C)NC(=O)[C@H](CCCCN)NC1=O [des4.3.1, SHA-Phe-dNle-Lys-dAla-dSer-Asp-dArg] (HELM PEPTIDE1{D.[dR].[O=C([C@H](CCCCCS)N[*:1])[*:2]].F.[CCCC[C@@H](N[*:1])C(=O)[*:2]].K.[dA].[dS]}$PEPTIDE1,PEPTIDE1,1:R1-8:R2$$$V2.0) ... 202702
N=C(N)NCCC[C@@H]1NC(=O)[C@@H](CCCNC(=N)N)NC(=O)[C@H]2CCCN2C(=O)[C@@H](Cc2c[nH]cn2)NC(=O)[C@H](Cc2ccc(O)cc2)NC(=O)[C@H](CCCCCS)NC(=O)[C@H](CCc2ccccc2)NC(=O)[C@@H](CO)NC(=O)[C@H](CC(=O)O)NC1=O [des3.3.1, SHA-Tyr-dHis-dPro-dArg-Arg-Asp-dSer-C27] (HELM PEPTIDE1{[O=C([C@H](CCCCCS)N[*:1])[*:2]].Y.[dH].[dP].[dR].R.D.[dS].[O=C([C@H](CCc1ccccc1)N[*:1])[*:2]]}$PEPTIDE1,PEPTIDE1,1:R1-9:R2$$$V2.0) ... 68185

For every item in the list below, what is its measured HDAC6 activity raw data (signal)?
1. N=C(N)NCCC[C@@H]1NC(=O)[C@H](Cc2c[nH]c3ccccc23)NC(=O)[C@H](CC(=O)O)NC(=O)[C@@H](CO)NC(=O)[C@H](Cc2c[nH]c3ccccc23)NC(=O)[C@H](CCCCCS)NC(=O)[C@H](CCC(N)=O)NC1=O [des4.1.0, SHA-Trp-dSer-Asp-Trp-Arg-Gln] (HELM PEPTIDE1{D.W.R.Q.[O=C([C@H](CCCCCS)N[*:1])[*:2]].W.[dS]}$PEPTIDE1,PEPTIDE1,1:R1-7:R2$$$V2.0)
2. N=C(N)NCCC[C@H]1NC(=O)[C@@H]2CCCN2C(=O)[C@H](CO)NC(=O)[C@@H](Cc2c[nH]cn2)NC(=O)[C@H](CCCCCS)NC(=O)[C@H](CCCCN)NC(=O)[C@H](Cc2ccc(O)cc2)NC(=O)[C@H]2CCCN2C(=O)[C@@H](CCC(N)=O)NC1=O [des3.1.0, SHA-dHis-Ser-Pro-dArg-dGln-dPro-Tyr-Lys] (HELM PEPTIDE1{K.[O=C([C@H](CCCCCS)N[*:1])[*:2]].[dH].S.P.[dR].[dQ].[dP].Y}$PEPTIDE1,PEPTIDE1,1:R1-9:R2$$$V2.0)

[534957, 163766]
